assay: small-molecule microarray binders of probe aEGFR, primary screen, biochemical, biotinylated probe, 635/667 nm fluorescence (AID 1097); settings: higher = more signal;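 note: probe is a biotinylated anti-EGFR antibody binding compounds printed on slides; score combines fluorescence near 667 nm and signal to noise of each spot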
Use fulfilled when the recorded composite z-score is no lower than -0.1; use not fulfilled when it is lower.

| Molecule Smiles | Category Label |
| --- | --- |
| COc1cc2c(cc1OC)CN(C(=O)[C@H]1[C@@H]3C(=O)O[C@@H](c4ccccc4)[C@@H](c4ccccc4)N3[C@@H](c3ccc(O)cc3)[C@]13C(=O)Nc1ccccc13)CC2 | not fulfilled |
| CCOC(=O)C[C@H]1[C@H](OC(=O)c2ccc(-c3ccccc3)cc2)[C@@H](NC(=O)Cc2ccc(OC)cc2)c2cc(OCCCO)ccc2N1C(=O)c1ccccc1 | not fulfilled |
| CN(C)CCCCCCNC(=O)[C@H]1C[C@H]2C(=O)N3CCC[C@H]3C(=O)N2[C@H]1c1ccc(O)cc1 | fulfilled |
| C=C(CCCC)C(=O)CC[C@@H](OC(=O)c1ccccc1-c1ccccc1C(=O)O)c1ccc(OCCO)cc1 | fulfilled |
| CCC[C@@H]1C[C@@]1(CCC)[C@@H](NS(=O)(=O)c1cccc2cccnc12)c1ccc(Cl)cc1 | not fulfilled |
| NCCCCCNC(=O)[C@@H]1C[C@@H]2C(=O)N[C@@H](Cc3ccccc3)C(=O)N2[C@@H]1c1ccc(O)cc1 | fulfilled |
| C=CC[C@@]1(C(=O)NCCN2CCOCC2)N=C(c2ccc(OCCCO)cc2)O[C@@H]1c1ccccc1N=[N+]=[N-] | fulfilled |
| COc1cccc(-c2cccc(=O)o2)c1 | fulfilled |

###

target: NADPH oxidase 5 (Homo sapiens); experiment: NOX5-dependent H2O2 signal modulators, primary screen, NOX inhibitor project, cell-based, HEK293-NOX5, Amplex Red fluorescence (AID 1161); settings: HEK293-NOX5, ionomycin, 45 min, higher = more signal
Measured Attribute: z-score

| Compound | Measured Attribute | Numeric Readout |
| --- | --- | --- |
| [N-]=[N+]=Nc1ccccc1[C@@H]1OC(c2ccc(OCCCO)cc2)=N[C@]1(CCS(=O)(=O)c1ccccc1)C(N)=O | z-score | 0.903 |
| COCCOC(=O)N1C(=O)[C@@]2(c3ccccc31)[C@H](c1ccccc1OCCO)N1[C@H](c3ccccc3)[C@H](c3ccccc3)OC(=O)[C@H]1[C@@H]2C(=O)N1CCN(c2ncccn2)CC1 | z-score | 0.183 |
| CC(C)[Si]1(C(C)C)O[C@@H](c2ccccc2)c2cc(-c3ccc(-c4ccc(Cl)c(Cl)c4)o3)nc(-c3ccccc3)c21 | z-score | 1.26 |
| CCc1cccc(NC(=O)O[C@H]2[C@H](OC(=O)Nc3ccccc3-c3ccccc3)[C@@H](OC(=O)Nc3ccccc3-c3ccccc3)[C@@H](OC)O[C@@H]2CO)c1 | z-score | -1.13 |
| CC(C)N1C(=O)c2ccccc2[C@](C)(C(=O)NCCN2CCOCC2)[C@@H]1c1ccc(CO)cc1 | z-score | 0.283 |
| CN(C)C(=O)[C@@]1(CCS(=O)(=O)c2ccccc2)COC(c2ccc(OCCCO)cc2)=N1 | z-score | -0.621 |
| CCCC#C[Si](O[C@H](CC)c1cn(Cc2cccc(Cl)c2)nn1)(C(C)C)C(C)C | z-score | 0.842 |
| CC(C)C(CO)N1C(=O)[C@@H]2C3C(=O)OCCC/C=C\[C@H]3OC23C=CCN(CCN2CCOCC2)C(=O)[C@@H]13 (some centres undefined) | z-score | 1.4 |
| O=C1N[C@@H](Cc2ccccc2)C(=O)N2[C@@H]1C[C@@H](C(=O)O)[C@H]2c1cccc(OCCO)c1 | z-score | -0.102 |
| C=CCC(OC(C)=O)[C@@H]1[C@@H](N(Cc2ccc(-c3cccc(C(F)(F)F)c3)o2)C(=O)c2ccc(C)cc2)c2cc(OCCCO)ccc2N1C(=O)Cc1ccc2ccccc2c1 (some centres undefined) | z-score | 1.51 |
| COC(=O)C(CC#Cc1ccc2c(c1)[C@]1(C(=O)N2)[C@H](c2ccc(OCCO)cc2)N2[C@H](c3ccccc3)[C@H](c3ccccc3)OC(=O)[C@H]2[C@@H]1C(=O)N1CCc2cc(OC)c(OC)cc2C1)C(=O)OC | z-score | 1.96 |
| CC(C)C(=C=CC[C@@H](O)c1ccc(OCCO)cc1)C[C@@H](O)COCc1ccccc1 | z-score | -2.41 |
| CCCCCN1CC=CC23O[C@@H]4C=CCCOC(=O)C4[C@H]2C(=O)N(CCCCCO)[C@@H]3C1=O (some centres undefined) | z-score | 1.32 |
| CC(C)C[C@@H]1NC(=O)[C@H](C(C)C)NC(=O)[C@@]23C(=O)N[C@@H](Cc4ccccc4)C2[C@H](C)[C@@]2(C)O[C@H]2C3/C=C/CC/C=C/CNC1=O (some centres undefined) | z-score | -0.477 |

###

assay: inhibitors of hydroxyurea-induced Chk1 phosphorylation, primary screen, imaging, HeLa, phospho-Chk1 nuclear intensity (AID 1187); settings: hydroxyurea-induced phospho-Chk1 immunofluorescence imaging, higher = more signal; note: test concentration not given here

| Molecule | z-score |
| --- | --- |
| COC(=O)[C@@]1(Cc2ccc(F)cc2)[C@H]2c3cc(C(=O)N(C)C)n(Cc4ccc(Cl)c(C(F)(F)F)c4)c3C[C@H]2CN1C(=O)c1ccccc1 | 0.528 |
| O=C1c2ccccc2[C@](Cc2ccccc2I)(C(=O)NCCN2CCOCC2)[C@H](c2ccc(CO)cc2)N1C1CCCCC1 | -6.65 |
| C=C(CCCC)C(=O)CC[C@@H](OC(=O)c1ccccc1-c1ccccc1C(=O)O)c1ccc(OCCO)cc1 | 0.362 |
| C=CCOC(=O)[C@H]1[C@@H]2C(=O)O[C@@H](c3ccccc3)[C@@H](c3ccccc3)N2[C@@H](c2ccc(OCCOC(=O)[C@H]3C[C@H]4C(=O)N[C@@H](CCCCNC(C)=O)C(=O)N4[C@H]3c3cccc(OCCO)c3)cc2)[C@]12C(=O)Nc1ccccc12 | -0.373 |
| CO[C@H]1O[C@H](CO)[C@@H](OC(=O)Nc2ccc(Oc3ccccc3)cc2)[C@H](OC(=O)Nc2ccc3c(c2)OCO3)[C@H]1OC(=O)Nc1ccc2c(c1)OCO2 | -0.152 |
| COC(=O)[C@@]1(Cc2ccccc2)N=C(c2ccc(OCCCO)cc2)O[C@H]1c1ccccc1 | -0.094 |
| CC1(C)[C@@H]2CC(C(O)C3C=CC4C(=O)N(Cc5ccccc5)C(=O)C4N3n3cnnc3)=C[C@H]1C2 (stereo partly drawn) | -0.115 |
| CO[C@H]1O[C@H](CO)[C@@H](OC(=O)Nc2cccc(F)c2)[C@H](OC(=O)Nc2ccccc2)[C@@H]1OC(=O)Nc1ccccc1 | 0.358 |
| Cc1ccccc1C(O)C1C=CC2C(=O)N(c3ccccc3)C(=O)C2N1Nc1ccc(C(C)C)cc1 (stereo not drawn) | 0.118 |
| COCCOC(=O)N1C(=O)[C@@]2(c3cc(C#CCC(C(=O)OC)C(=O)OC)ccc31)[C@H](c1ccccc1OCCO)N1[C@H](c3ccccc3)[C@H](c3ccccc3)OC(=O)[C@H]1[C@@H]2C(=O)NC[C@H](O)c1ccccc1 | -0.19 |
| CCC[C@@H]1C[C@@]1(CCC)[C@@H](NC(=O)c1ccccc1)c1cccc(Cl)c1 | -0.608 |
| NCCCCCNC(=O)[C@@H]1C[C@@H]2C(=O)N[C@@H](Cc3ccccc3)C(=O)N2[C@@H]1c1ccc(O)cc1 | 0.204 |
| C=CCC(OC(C)=O)[C@@H]1[C@@H](N(Cc2ccc(-c3cccc(C(F)(F)F)c3)o2)C(=O)c2ccc(C)cc2)c2cc(OCCCO)ccc2N1C(=O)Cc1ccc2ccccc2c1 (stereo partly drawn) | -0.709 |
| CCOC(=O)C[C@H]1[C@H](OC(=O)c2ccc(C(=O)c3ccccc3)cc2)[C@@H](NC(=O)c2ccc3ccccc3n2)c2cc(OCCCO)ccc2N1C(=O)c1ccccc1 | 0.334 |
| COc1cc2c(cc1OC)CN(C(=O)[C@@H]1[C@H]3C(=O)O[C@H](c4ccccc4)[C@H](c4ccccc4)N3[C@H](c3ccc(O)cc3)[C@@]13C(=O)Nc1ccccc13)CC2 | -0.728 |
| CCCc1cc2c(n1Cc1cc(F)cc(F)c1)C(C)C1CN(C(=O)c3ccccc3)C(C)(C(=O)OC)C21 (stereo not drawn) | 0.0213 |
| C=CCN1C(=O)[C@]2(O[C@H](CCn3cc([C@H](O)c4ccccc4)nn3)[C@@H]([Si](C)(C)c3ccc(OC)cc3)[C@@H]2C)c2cc(N3CCC3=O)ccc21 | -0.171 |
| COC(=O)[C@@]1(Cc2ccc(OC)cc2)[C@H]2c3cc(C(=O)N(C)C)n(Cc4ccccn4)c3C[C@H]2CN1C(=O)c1ccccc1 | -0.406 |
| CCC(CC)C(O)C1C=CC2C(=O)NC(=O)C2N1Nc1ccc(Cl)cc1Cl (stereo not drawn) | 0.786 |
| COC(=O)[C@H](Cc1ccccc1)N[C@@H](/C=C/C1CC1)[C@H](O)Cc1ccccc1 | -0.295 |
| CN1C(=O)C2C=CC(C(O)c3ccccc3)N(N(c3ccccc3)c3ccccc3)C2C1=O (stereo not drawn) | 0.606 |
| C=C(C)[C@@H]1CC=C(C(O)C2C=CC3C(=O)N(C)C(=O)C3N2Nc2ccccc2)CC1 (stereo partly drawn) | -0.968 |
| CC1(C)C2C=C(C(O)C3C=CC4C(=O)NC(=O)C4N3Nc3ccc(Cl)cc3Cl)C[C@@H]1C2 (stereo partly drawn) | 0.327 |
| O=C(c1ccccc1)N1Cc2ccccc2C[C@@]2(COC(c3ccc(OCCCO)cc3)=N2)C1=O | 0.159 |
| COCCOC(=O)N1C(=O)[C@@]2(c3cc(C#CCC(C(=O)OC)C(=O)OC)ccc31)[C@H](C(=O)N1CCN(c3ncccn3)CC1)[C@H]1C(=O)O[C@H](c3ccccc3)[C@H](c3ccccc3)N1[C@@H]2c1ccccc1OCCO | 0.176 |
| CN1C(=O)C2C=CC(C(O)C3CC=CCC3)N(N(c3ccccc3)c3ccccc3)C2C1=O (stereo not drawn) | 0.0168 |
| COc1ccc(CCNC(=O)[C@@]2(C)c3ccccc3C(=O)N(C(C)C)[C@H]2c2ccc(CO)cc2)cc1 | -0.33 |
| COc1ccc(CCNC(=O)[C@@H]2c3ccccc3C(=O)N(Cc3ccccc3Cl)[C@H]2c2ccc(CO)cc2)cc1 | 0.595 |
